Entry source: paper PMC9482650

- targetOrSystem: T1, PARD3B_1, Q8TEW8
- T1 sequence (Q8TEW8 196-299, limits assumed, looked up): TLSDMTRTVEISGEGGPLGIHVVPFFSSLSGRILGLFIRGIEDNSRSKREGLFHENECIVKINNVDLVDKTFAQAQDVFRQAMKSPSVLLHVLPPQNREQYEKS
- assayInfo: holdup assay
- Set-up: key: below the threshold = too weak to quantify, mostly under pKd 3.1 to 4
- assayConditions: plain residues with an end cap or a label only (N-terminal biotin on a linker: ado-ado)
measuredParameter: pKd

In the examples that follow, each entry is paired with its recorded pKd.
>  <binder>
PRISRSQSEL [CCDC134, Q9H6E4]

>  <recordedResult>
below the threshold

$$$$
>  <binder>
TKGPRGPTRV [SAPCD1, Q5SSQ6]

>  <recordedResult>
below the threshold

$$$$
>  <binder>
QSARLWETSI [ADAM22, Q9P0K1]

>  <recordedResult>
3.78

$$$$
>  <binder>
DDEDRLVIEI [ZNF831, Q5JPB2]

>  <recordedResult>
3.62

$$$$
>  <binder>
RRRESYSTTV [EVI5, O60447]

>  <recordedResult>
below the threshold

$$$$
>  <binder>
SAKVRTVTSV [RASL11B, Q9BPW5]

>  <recordedResult>
below the threshold

$$$$
>  <binder>
PRAEAEDSFL [PDGFRB, P09619]

>  <recordedResult>
4.55

$$$$

Note to self: pKd recorded for YNNCLEILRV [DCAF7, P61962] was 4.01
